system: GM15850; test: Effect on mitochondrial membrane potential in human GM15850 cells assessed as intact mitochondrial membrane at 0.25 uM after 16 hrs by JC1 staining based flow cytometry (reference value: 87%); type: functional
QUANTITY_KIND: Activity (%)

- COMPOUND: "CCCCCCCCCCCCCCCCc1cc2nc3ccc(N(C)C)cc3sc-2cc1=[N+](C)C.[I-]"
  RESULT_VALUE: 86
- COMPOUND: "CN(C)c1ccc2nc3ccc(N(C)C)cc3[s+]c2c1.[Cl-] [METHYLENE BLUE ANHYDROUS]"
  RESULT_VALUE: 83
- COMPOUND: "CCCCCCCCCCCCCc1cc2nc3ccc(N(C)C)cc3sc-2cc1=O"
  RESULT_VALUE: 87
- COMPOUND: "CCCCCCCCCCCc1cc2nc3ccc(N(C)C)cc3sc-2cc1=[N+](C)C.[I-]"
  RESULT_VALUE: 82
- COMPOUND: "CCCCCCCCCCCCCCCCc1cc2nc3ccc(N(C)C)cc3sc-2cc1=O"
  RESULT_VALUE: 88
- COMPOUND: "CCCCCc1cc2nc3ccc(N(C)C)cc3sc-2cc1=O"
  RESULT_VALUE: 84
- COMPOUND: "CCCCCCCCCCCCCc1cc2nc3ccc(N(C)C)cc3sc-2cc1=[N+](C)C.[I-]"
  RESULT_VALUE: 82
- COMPOUND: "CCCCCCCCCCCc1cc2nc3ccc(N(C)C)cc3sc-2cc1=O"
  RESULT_VALUE: 86
- COMPOUND: "CN(C)c1ccc2nc3ccc(=O)cc-3sc2c1"
  RESULT_VALUE: 85
- COMPOUND: "CCCCCc1cc2nc3ccc(N(C)C)cc3sc-2cc1=[N+](C)C.[I-]"
  RESULT_VALUE: 81

###

// Activity lookup, one value per entry
system: GM16216; experiment: Induction of mitochondrial biogenesis in human GM16216 cells assessed as ratio of COX1 to SDH-A protein levels at 250 after 24 hrs by ELISA relative to control; assay type: functional

- SMILES: "CN(C)c1ccc2nc3ccc(=O)cc-3sc2c1"
  UNIT_NAME: "%"
  Activity: 117
- SMILES: "CCCCCCCCCCCCCCCN(CCCC)c1ccc2nc3ccc(=O)cc-3sc2c1"
  UNIT_NAME: "%"
  Activity: 127
- SMILES: "CCCCCCCCCCCCCCCN(C)c1ccc2nc3ccc(=O)cc-3sc2c1"
  UNIT_NAME: "%"
  Activity: 127
- SMILES: "CCCCCCCCCCCCCCCCc1cc2nc3ccc(N(C)C)cc3sc-2cc1=O"
  UNIT_NAME: "%"
  Activity: 132

###

system: GM16216; test: Cytoprotection against DEM-induced toxicity in human GM16216 cells assessed as increase in cell viability at 0.5 to 2.5 uM pretreated for 16 hrs followed by DEM addition and measured after 5 hrs by live/dead staining based flow cytometry; format: functional
Active and inactive are the calls of the source. No cut-off for these calls is given here.

- SMILES: "CCCCCc1cc2nc3ccc(N(C)C)cc3sc-2cc1=[N+](C)C.[I-]"
  Activity: "Active"
- SMILES: "CCCCCCCCCCCCCCCCc1cc2nc3ccc(N(C)C)cc3sc-2cc1=[N+](C)C.[I-]"
  Activity: "Active"
- SMILES: "CN(C)c1ccc2nc3ccc(=[N+](C)C)cc-3sc2c1"
  Activity: "Active"
- SMILES: "CCCCCCCCCCCCCc1cc2nc3ccc(N(C)C)cc3sc-2cc1=[N+](C)C.[I-]"
  Activity: "Active"
